Target: human EP2 (Homo sapiens)
Construct: host or cells: CHO-Gα16
Sequence (P43116 whole entry): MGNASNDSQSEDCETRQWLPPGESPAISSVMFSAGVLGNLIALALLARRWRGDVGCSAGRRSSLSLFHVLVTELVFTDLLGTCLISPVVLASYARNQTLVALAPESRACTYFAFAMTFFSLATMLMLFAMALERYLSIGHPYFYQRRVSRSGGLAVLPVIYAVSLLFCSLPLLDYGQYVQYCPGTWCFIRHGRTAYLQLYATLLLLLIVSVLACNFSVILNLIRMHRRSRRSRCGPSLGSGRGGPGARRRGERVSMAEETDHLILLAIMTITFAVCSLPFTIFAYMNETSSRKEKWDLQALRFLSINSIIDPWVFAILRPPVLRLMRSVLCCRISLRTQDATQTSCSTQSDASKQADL
Test: PGE2-induced calcium flux assay in CHO-Gα16 cells
Format: cell-based
pIC50: −log10 of the molar value.
measurement name: pIC50

| molecule | measurement name | test value |
| --- | --- | --- |
| C[C@H](NC(=O)c1c(Cc2ccc(F)cc2)sc2c1CCOC2)c1ccc(C(=O)O)cc1 [TP-16] | pIC50 | < 5.00 |

====

Target: ADRB2 (Homo sapiens, UniProt P07550)
Construct: Pharmaron (Beijing, China) performed the assay
Sequence (P07550 whole entry, species assumed): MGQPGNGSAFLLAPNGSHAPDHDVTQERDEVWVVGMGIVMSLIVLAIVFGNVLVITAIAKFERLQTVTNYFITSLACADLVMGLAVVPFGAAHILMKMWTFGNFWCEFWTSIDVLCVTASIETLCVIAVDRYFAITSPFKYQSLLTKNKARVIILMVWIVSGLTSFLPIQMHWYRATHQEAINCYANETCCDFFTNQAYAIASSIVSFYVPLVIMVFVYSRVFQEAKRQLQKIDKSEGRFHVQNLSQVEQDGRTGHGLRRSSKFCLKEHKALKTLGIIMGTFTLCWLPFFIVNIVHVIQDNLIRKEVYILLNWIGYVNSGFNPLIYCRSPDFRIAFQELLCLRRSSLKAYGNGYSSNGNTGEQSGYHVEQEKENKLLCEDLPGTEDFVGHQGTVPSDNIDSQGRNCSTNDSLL
Assay: GPCR calcium flux assay

| compound | IC50 |
| --- | --- |
| C[C@H](NC(=O)c1c(Cc2ccc(F)cc2)sc2c1CCOC2)c1ccc(C(=O)O)cc1 [TP-16] | > 10 µM |

====

Target: AVPR1A (Homo sapiens)
Construct: Pharmaron (Beijing, China), contract laboratory
Sequence (P37288 whole entry, species assumed): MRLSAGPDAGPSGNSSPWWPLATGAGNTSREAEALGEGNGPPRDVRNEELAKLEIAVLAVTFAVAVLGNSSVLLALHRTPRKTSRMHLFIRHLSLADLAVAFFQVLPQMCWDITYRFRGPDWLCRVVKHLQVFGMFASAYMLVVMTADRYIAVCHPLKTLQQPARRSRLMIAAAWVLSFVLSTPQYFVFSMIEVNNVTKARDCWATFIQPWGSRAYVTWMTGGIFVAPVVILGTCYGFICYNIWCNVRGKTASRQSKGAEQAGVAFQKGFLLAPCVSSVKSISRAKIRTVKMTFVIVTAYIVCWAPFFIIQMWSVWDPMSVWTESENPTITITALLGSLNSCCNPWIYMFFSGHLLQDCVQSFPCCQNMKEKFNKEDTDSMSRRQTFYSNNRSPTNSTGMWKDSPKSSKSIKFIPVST
Assay: GPCR calcium flux assay

| input smiles | IC50 |
| --- | --- |
| C[C@H](NC(=O)c1c(Cc2ccc(F)cc2)sc2c1CCOC2)c1ccc(C(=O)O)cc1 | > 10 µM |

====

Biological target: OPRD1 (Homo sapiens, UniProt P41143)
Construct: Pharmaron (Beijing, China), contract laboratory
Sequence (P41143 whole entry, species assumed): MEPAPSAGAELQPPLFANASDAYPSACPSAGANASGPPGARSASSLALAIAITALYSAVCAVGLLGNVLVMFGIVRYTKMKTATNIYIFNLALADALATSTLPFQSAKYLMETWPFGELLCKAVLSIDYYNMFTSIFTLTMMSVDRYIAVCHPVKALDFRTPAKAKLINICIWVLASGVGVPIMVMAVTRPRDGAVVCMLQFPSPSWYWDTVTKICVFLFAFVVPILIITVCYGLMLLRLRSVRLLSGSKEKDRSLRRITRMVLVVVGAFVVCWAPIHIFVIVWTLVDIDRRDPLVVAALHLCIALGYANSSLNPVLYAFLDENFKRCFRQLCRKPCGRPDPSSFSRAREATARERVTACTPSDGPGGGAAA
Assay: GPCR calcium flux assay
Settings: read-out: Known agonists EC50
pEC50: −log10 of the molar value.
measurement name: pEC50

| compound | measurement name | test value |
| --- | --- | --- |
| CCN(CC)C(=O)c1ccc(C2=CC3(CCNCC3)Oc3cccc(O)c32)cc1 [ADL-5859, reference compound] | pEC50 | 6.57 |

====

Target: AT1 (Homo sapiens)
Construct: Pharmaron (Beijing, China), contract laboratory
Sequence (P30556 whole entry): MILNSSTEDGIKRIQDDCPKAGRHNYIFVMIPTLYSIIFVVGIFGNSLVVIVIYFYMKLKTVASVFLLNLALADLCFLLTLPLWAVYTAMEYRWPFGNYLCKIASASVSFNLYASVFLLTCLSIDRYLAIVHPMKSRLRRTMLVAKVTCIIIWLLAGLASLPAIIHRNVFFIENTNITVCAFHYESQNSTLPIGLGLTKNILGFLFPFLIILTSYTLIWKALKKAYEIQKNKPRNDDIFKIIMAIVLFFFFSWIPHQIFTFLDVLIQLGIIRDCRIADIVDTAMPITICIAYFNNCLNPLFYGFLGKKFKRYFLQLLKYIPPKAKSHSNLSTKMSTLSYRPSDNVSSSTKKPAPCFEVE
Assay: GPCR calcium flux assay
Assay type: cell-based
Details: read-out: Known agonists EC50
Where no end group is shown, it is not given here.

| sequence input | output unit | EC50 |
| --- | --- | --- |
| DRVYVHPF [Angiotensin II 5-valine] | nM | 0.2 |

====

Biological target: HRH1 (Homo sapiens)
Construct: Pharmaron (Beijing, China), contract laboratory
Sequence (P35367 whole entry, species assumed): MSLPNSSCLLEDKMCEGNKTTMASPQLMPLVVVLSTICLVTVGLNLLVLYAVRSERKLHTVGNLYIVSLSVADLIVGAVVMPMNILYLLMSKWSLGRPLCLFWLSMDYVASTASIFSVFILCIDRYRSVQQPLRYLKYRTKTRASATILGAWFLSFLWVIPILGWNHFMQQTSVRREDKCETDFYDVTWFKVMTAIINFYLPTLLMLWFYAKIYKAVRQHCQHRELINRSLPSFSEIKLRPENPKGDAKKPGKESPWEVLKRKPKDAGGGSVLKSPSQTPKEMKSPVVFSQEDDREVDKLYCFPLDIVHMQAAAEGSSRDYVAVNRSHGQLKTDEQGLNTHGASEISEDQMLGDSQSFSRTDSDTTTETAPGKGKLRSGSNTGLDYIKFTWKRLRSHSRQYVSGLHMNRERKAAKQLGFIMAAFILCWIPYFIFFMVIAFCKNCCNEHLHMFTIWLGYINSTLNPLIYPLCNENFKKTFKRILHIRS
Assay: GPCR calcium flux assay

| compound | IC50 |
| --- | --- |
| C[C@H](NC(=O)c1c(Cc2ccc(F)cc2)sc2c1CCOC2)c1ccc(C(=O)O)cc1 [TP-16] | > 10 µM |

====

Assay: Pharmacokinetics in CD1 mice
Assay type: in vivo, mouse
Settings: male, mouse, plasma, po, P.O. 10 mg/kg, read-out: Vd/F

| input smiles | Vd/F, L/kg |
| --- | --- |
| C[C@H](NC(=O)c1c(Cc2ccc(F)cc2)sc2c1CCOC2)c1ccc(C(=O)O)cc1 | 9.08 |

====

Experiment: In vitro metabolic stability using liver microsome
Format: in vitro ADME
Details: liver microsomes; mouse liver microsome
measurement name: hepatocyte CLint (µL/min/1e6 cells)

| input smiles | test value |
| --- | --- |
| C[C@H](NC(=O)c1c(Cc2ccc(F)cc2)sc2c1CCOC2)c1ccc(C(=O)O)cc1 | 5.91 |

====

Experiment: Pharmacokinetics in CD1 mice
Type: in vivo, mouse
Details: male, mouse, plasma, iv, I.V. 1 mg/kg

| input smiles | AUC(0-inf) [ng·h/mL] |
| --- | --- |
| C[C@H](NC(=O)c1c(Cc2ccc(F)cc2)sc2c1CCOC2)c1ccc(C(=O)O)cc1 | 2140 |
